# pKd values compiled below
- experimental system: T1, Recombinant Human TNF-α/TNFSF1A (human, UniProt P01375 77-233)
- T1 construct: also called hTNF-α; huTNFα
- T1 sequence (P01375 77-233 limits assumed): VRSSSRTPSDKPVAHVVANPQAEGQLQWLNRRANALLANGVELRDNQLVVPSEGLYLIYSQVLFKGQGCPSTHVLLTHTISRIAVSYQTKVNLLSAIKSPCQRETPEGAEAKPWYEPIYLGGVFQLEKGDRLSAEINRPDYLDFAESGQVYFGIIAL
- protocol description: SPR (BIACORE), antibody captured, TNFα in solution
pKd: −log10 of the molar value.
quantity name: pKd

1) AB376 (antibody, V domains shown, Full-length humanized antibody made in HEK 293-6E; also called hMAK199VH.2a/hMAK199VL.1a) VH: EIQLVQSGAEVKKPGASVKVSCKASGYTFTNYGMNWVRQAPGQGLEWMGWINTYTGEPTYADDFKGRFTFTLDTSTSTAYMELSSLRSEDTAVYFCARKFLTTVVVTDYAMDYWGQGTTVTVSS VL: DIQMTQSPSSLSASVGDRVTITCRASQDISNYLNWYQQKPGKTVKLLIYYTSRLQSGVPSRFSGSGSGTDYTLTISSLQPEDFATYFCQQGNTLPPTFGQGTKLEIK ... 8.89
2) AB357 (antibody, V domains shown, Full-length humanized antibody made in HEK 293-6E; also called hMAK199VH.1a/hMAK199VL.1) VH: EIQLVQSGSELKKPGASVKVSCKASGYTFTNYGMNWVRQAPGQGLEWMGWINTYTGEPTYADDFKGRFVFSLDTSVSTAYLQISSLKAEDTAVYFCARKFLTTVVVTDYAMDYWGQGTTVTVSS VL: DIQMTQSPSSLSASVGDRVTITCRASQDISNYLNWYQQKPGKAPKLLIYYTSRLQSGVPSRFSGSGSGTDFTLTISSLQPEDFATYYCQQGNTLPPTFGQGTKLEIK ... 9.17
3) AB375 (antibody, V domains shown, Full-length humanized antibody made in HEK 293-6E; also called hMAK199VH.2a/hMAK199VL.1) VH: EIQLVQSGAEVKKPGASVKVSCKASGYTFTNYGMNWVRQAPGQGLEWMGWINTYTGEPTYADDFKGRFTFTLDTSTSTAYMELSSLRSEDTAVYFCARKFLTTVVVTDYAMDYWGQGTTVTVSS VL: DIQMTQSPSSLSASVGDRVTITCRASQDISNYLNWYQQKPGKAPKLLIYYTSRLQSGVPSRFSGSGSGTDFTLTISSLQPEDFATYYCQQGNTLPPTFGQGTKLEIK ... 8.89
4) AB381 (antibody, V domains shown, Full-length humanized antibody made in HEK 293-6E; also called hMAK199VH.2b/hMAK199VL.1) VH: EIQLVQSGAEVKKPGASVKVSCKASGYTFTNYGMNWVRQAPGQGLEWMGWINTYTGEPTYADDFKGRVTFTTDTSTSTAYMELSSLRSEDTAVYYCARKFLTTVVVTDYAMDYWGQGTTVTVSS VL: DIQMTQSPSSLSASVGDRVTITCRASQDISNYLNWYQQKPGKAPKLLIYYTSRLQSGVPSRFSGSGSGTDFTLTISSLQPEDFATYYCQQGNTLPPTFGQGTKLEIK ... 8.72
5) AB354 (antibody, V domains shown, Full-length humanized antibody made in HEK 293-6E; also called hMAK199VH.1/hMAK199VL.2) VH: EVQLVQSGSELKKPGASVKVSCKASGYTFTNYGMNWVRQAPGQGLEWMGWINTYTGEPTYADDFKGRFVFSLDTSVSTAYLQISSLKAEDTAVYYCARKFLTTVVVTDYAMDYWGQGTTVTVSS VL: DVVMTQSPAFLSVTPGEKVTITCRASQDISNYLNWYQQKPDQAPKLLIKYTSRLQSGVPSRFSGSGSGTDFTFTISSLEAEDAATYYCQQGNTLPPTFGQGTKLEIK ... 9.28
6) AB382 (antibody, V domains shown, Full-length humanized antibody made in HEK 293-6E; also called hMAK199VH.2b/hMAK199VL.1a) VH: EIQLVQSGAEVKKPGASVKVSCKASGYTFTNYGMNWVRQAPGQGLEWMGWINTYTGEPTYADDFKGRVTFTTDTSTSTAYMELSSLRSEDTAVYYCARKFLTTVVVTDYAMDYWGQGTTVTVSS VL: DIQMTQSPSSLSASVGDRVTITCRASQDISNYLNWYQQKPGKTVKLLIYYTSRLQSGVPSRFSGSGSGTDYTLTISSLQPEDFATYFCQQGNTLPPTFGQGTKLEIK ... 8.70
7) AB352 (antibody, V domains shown, Full-length humanized antibody made in HEK 293-6E; also called hMAK199VH.1/hMAK199VL.1a) VH: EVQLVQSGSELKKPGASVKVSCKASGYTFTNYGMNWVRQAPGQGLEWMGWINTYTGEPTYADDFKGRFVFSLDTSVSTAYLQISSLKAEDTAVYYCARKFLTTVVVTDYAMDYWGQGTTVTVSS VL: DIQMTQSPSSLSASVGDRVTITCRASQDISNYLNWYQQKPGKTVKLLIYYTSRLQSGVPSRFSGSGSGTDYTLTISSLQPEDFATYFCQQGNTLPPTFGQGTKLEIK ... 9.35
8) AB372 (antibody, V domains shown, Full-length humanized antibody made in HEK 293-6E; also called hMAK199VH.2/hMAK199VL.2) VH: EVQLVQSGAEVKKPGASVKVSCKASGYTFTNYGMNWVRQAPGQGLEWMGWINTYTGEPTYADDFKGRVTMTTDTSTSTAYMELSSLRSEDTAVYYCARKFLTTVVVTDYAMDYWGQGTTVTVSS VL: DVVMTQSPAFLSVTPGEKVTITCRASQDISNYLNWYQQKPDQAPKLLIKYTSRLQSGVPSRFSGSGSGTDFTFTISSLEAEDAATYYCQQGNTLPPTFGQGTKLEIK ... 8.92
9) AB363 (antibody, V domains shown, Full-length humanized antibody made in HEK 293-6E; also called hMAK199VH.1b/hMAK199VL.1) VH: EVQLVQSGSELKKPGASVKVSCKASGYTFTNYGMNWVRQAPGQGLEWMGWINTYTGEPTYADDFKGRFVFSLDTSVSTAYLQISSLKAEDTAVYFCARKFLTTVVVTDYAMDYWGQGTTVTVSS VL: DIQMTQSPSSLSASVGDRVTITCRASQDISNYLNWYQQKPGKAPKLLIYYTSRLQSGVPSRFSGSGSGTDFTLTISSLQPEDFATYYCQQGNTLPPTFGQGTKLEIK ... 9.07
10) AB386 (antibody, V domains shown, Full-length humanized antibody made in HEK 293-6E; also called hMAK199VH.2b/hMAK199VL.2b) VH: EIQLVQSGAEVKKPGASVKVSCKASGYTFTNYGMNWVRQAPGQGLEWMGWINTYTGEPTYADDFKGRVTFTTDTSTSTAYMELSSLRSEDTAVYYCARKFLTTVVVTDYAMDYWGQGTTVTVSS VL: DIVMTQSPAFLSVTPGEKVTITCRASQDISNYLNWYQQKPDQAPKLLIYYTSRLQSGVPSRFSGSGSGTDYTFTISSLEAEDAATYYCQQGNTLPPTFGQGTKLEIK ... 8.64
